Just for reference, the supplement of paper PMC8253809 is where these values come from.

System: DIPGX37 (H3.3 K27M diffuse intrinsic pontine glioma line)
Assay: growth inhibition (% activity, log2 RLU normalised to DMSO / staurosporine); higher = more growth inhibition
Conditions: 33 µM

MOLECULE	STUDY_TARGET	growth inhibition / %
Cc1ncc([N+](=O)[O-])n1CC(C)O (stereo unspecified)	DIPGX37	-0.804
Cc1ccc(C(=O)Nc2ccc(CN3CCN(C)CC3)c(C(F)(F)F)c2)cc1C#Cc1cnc2cccnn12	DIPGX37	59.1
CC(=O)Oc1cc(C(F)(F)F)ccc1C(=O)O	DIPGX37	-1.02
Cn1ccnc1S	DIPGX37	-0.808
NNC(=O)c1ccncc1.Nc1ccc(C(=O)O)c(O)c1	DIPGX37	2.72
COc1ccc2c(c1)c(CC(=O)OCC(=O)O)c(C)n2C(=O)c1ccc(Cl)cc1	DIPGX37	5.04
C[C@H]1c2cccc(O)c2C(=O)C2=C(O)[C@]3(O)C(=O)C(C(N)=O)=C(O)[C@@H](N(C)C)[C@@H]3[C@@H](O)[C@@H]21	DIPGX37	-0.495
CC(C)(Oc1ccc(Cl)cc1)C(=O)O	DIPGX37	1.37
CC1CNc2c(cccc2S(=O)(=O)N[C@@H](CCCNC(=N)N)C(=O)N2CC[C@@H](C)C[C@@H]2C(=O)O)C1 (stereo partly specified)	DIPGX37	1.59
Nc1c2c(nc3ccccc13)CCCC2	DIPGX37	1.21
Nc1nc(Cl)nc2c1ncn2[C@H]1C[C@H](O)[C@@H](CO)O1	DIPGX37	8.52

---

Below, each entry is listed with its recorded growth inhibition.
Test system: HGGX39 (paediatric high-grade glioma line)
Experiment: growth inhibition (% activity, log2 RLU normalised to DMSO / staurosporine); higher = more growth inhibition
Details: 33 µM
ASSAY_READOUT: growth inhibition (%)

COMPOUND	ASSAY_READOUT	REPORTED_MEASUREMENT
CCCC(=O)[O-].[Na+]	growth inhibition	0.723
NC(CO)(CO)CO	growth inhibition	1.76
CCN(CC)CCOCCOC(=O)C(CC)(CC)c1ccccc1	growth inhibition	9.22
Oc1ccc(OCc2ccccc2)cc1	growth inhibition	1.21
Cc1cc(C(C)(C)C)cc(C)c1CC1=NCCN1	growth inhibition	-0.405
Oc1ccc(/C=C/c2cc(O)cc(O)c2)cc1	growth inhibition	1.37
CC[C@H]1OC(=O)[C@H](C)[C@@H](O[C@H]2C[C@@](C)(OC)[C@@H](O)[C@H](C)O2)[C@H](C)[C@@H](O[C@@H]2O[C@H](C)C[C@H](N(C)C)[C@H]2O)[C@](C)(OC)C[C@@H](C)C(=O)[C@H](C)[C@@H](O)[C@]1(C)O	growth inhibition	1.64
CCCCNC(=O)NS(=O)(=O)c1ccc(C)cc1	growth inhibition	2.32
Cn1c(=O)c2[nH]cnc2n(C)c1=O	growth inhibition	-0.447
Cn1ccnc1S	growth inhibition	-0.799
O=C([O-])C(O)[C@H](O)[C@@H](O)[C@H](O)[C@H](O)CO.O=C([O-])C(O)[C@H](O)[C@@H](O)[C@H](O)[C@H](O)CO.[Ca+2] (some centres undefined)	growth inhibition	2.2
O=C(O)CCNC(=O)c1ccccc1	growth inhibition	0.895
CC1Cc2ccccc2N1NC(=O)c1ccc(Cl)c(S(N)(=O)=O)c1 (centres undefined)	growth inhibition	0.759
Cn1c([N+](=O)[O-])cnc1COC(N)=O	growth inhibition	2.55
NCCNCCNCCNCCN	growth inhibition	2.02
CCOc1nc2cccc(C(=O)O)c2n1Cc1ccc(-c2ccccc2-c2nnn[nH]2)cc1	growth inhibition	0.622
N=C(N)c1ccc(OCCCCCOc2ccc(C(=N)N)cc2)cc1	growth inhibition	42.9
NCCc1ccc(O)c(O)c1	growth inhibition	0.908
Nc1cccc2c1C(=O)N(C1CCC(=O)NC1=O)C2=O (centres undefined)	growth inhibition	-1.86
COc1cc2ncnc(Nc3ccc(F)c(Cl)c3)c2cc1OCCCN1CCOCC1	growth inhibition	1.46
O=P(O)(O)C(Cl)(Cl)P(=O)(O)O	growth inhibition	2.08
COC1=C(OC)C(=O)C(CCCCCCCCCCO)=C(C)C1=O	growth inhibition	2.64
Nc1ccn([C@H]2CC[C@@H](CO)O2)c(=O)n1	growth inhibition	6.49
CNC[C@H](O)[C@@H](O)[C@H](O)[C@H](O)CO	growth inhibition	4.71
